Test: Bioavailability of orally administered FTS formulated in 0.5% aqueous carboxymethylcellulose (plasma FTS by LC/MS)
Assay type: in vivo, CD-1 mice
Conditions: CD-1, mouse, oral, 40 mg/kg, mice, gavage, 0.5% aqueous carboxymethylcellulose suspension, dose 40 mg/ml (10 ml/kg), 24 hours
outcomeMeasure: concentration at 24 h

Fill blank: measured concentration at 24 h of the compound CC(C)=CCC/C(C)=C/CC/C(C)=C/CSc1ccccc1C(=O)O is ____.
< 3 ng/mL
